Just for reference, patent US8211929B2 is where these values come from.

molecular target: IGF 3P (Homo sapiens, UniProt P08069); construct: human IGF1R kinase domain residues M954-C1367; made in house; host or cells: baculovirus expression (insect cells); assay: IGF1R kinase assay (LCCA), IGF 3P; type: biochemical; conditions: IGF1R kinase LCCA assay, IGF 3P
Sequence (P08069 954-1367): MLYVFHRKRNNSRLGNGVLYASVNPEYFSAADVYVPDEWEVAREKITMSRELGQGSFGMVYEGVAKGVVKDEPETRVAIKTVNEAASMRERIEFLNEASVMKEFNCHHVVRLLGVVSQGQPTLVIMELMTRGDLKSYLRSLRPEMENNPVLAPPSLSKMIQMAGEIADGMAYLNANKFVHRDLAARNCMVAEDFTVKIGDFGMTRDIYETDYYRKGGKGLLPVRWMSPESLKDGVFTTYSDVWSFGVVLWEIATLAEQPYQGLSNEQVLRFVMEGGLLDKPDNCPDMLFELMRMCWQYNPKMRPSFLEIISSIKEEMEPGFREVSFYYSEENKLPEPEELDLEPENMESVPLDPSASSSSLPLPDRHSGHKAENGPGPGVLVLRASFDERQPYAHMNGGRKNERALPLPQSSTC
Form field: IC50 (one value per entry).

>  <SMILES CODE>
CC(C)c1cc(CNc2nc(Nc3cc(C4CC4)[nH]n3)cc(N3CCN[C@H](C)C3)n2)on1

>  <IC50>
< 50 nM

$$$$
>  <SMILES CODE>
c1ccc(-c2cc(CNc3nc(Nc4cc(C5CC5)n[nH]4)cc(OCCN4CCCC4)n3)on2)cc1

>  <IC50>
< 50 nM

$$$$
>  <SMILES CODE>
CCN(CC)CCNC(=O)CCc1ccc(Nc2ncc(Br)c(Nc3cc(C)on3)n2)cc1

>  <IC50>
< 50 nM

$$$$

[in] Would you mind telling me what IC50 value was observed for "CC(=O)NCC=CCn1cc(-c2cccc(OCc3ccccc3)c2)c2c(N)ncnc21" ?
[out] 500 to 5000 nM
